Assay: Plasma pharmacokinetics of milademetan
Assay type: in vivo, human
Settings: human, plasma, po, 60 mg/d, AUCtau, Day 21 of cycle 1, Cohort 1 (60 mg/d) (n = 2), oral QD; mean (SD)
measuredMetric: AUC
Put your answer as a value accompanied by its unit after it.

Lookup: So what's the measured AUC for this one? CC1(C)CCC2(CC1)N[C@@H](C(=O)N[C@@H]1CC[C@@H](C(N)=O)OC1)[C@H](c1ccnc(Cl)c1F)[C@]21C(=O)Nc2cc(Cl)ccc21
Found: 7390 ng·h/mL

* * *

Assay: Plasma pharmacokinetics of milademetan
Assay type: in vivo, human
Settings: human, plasma, po, 60 mg/d, Cmax, Day 1 of cycle 1, Cohort 1 (60 mg/d) (n = 3), oral QD; mean (SD)
measuredMetric: Cmax (ng/mL)
Respond with the bare value in ng/mL.

Lookup: Requested field: Cmax. Item: CC1(C)CCC2(CC1)N[C@@H](C(=O)N[C@@H]1CC[C@@H](C(N)=O)OC1)[C@H](c1ccnc(Cl)c1F)[C@]21C(=O)Nc2cc(Cl)ccc21 [milademetan, Milademetan]
Found: 429

* * *

Experiment: Plasma pharmacokinetics of milademetan
Assay type: in vivo, human
Conditions: human, plasma, po, 60 mg/d, Tmax, Day 21 of cycle 1, Cohort 1 (60 mg/d) (n = 2), oral QD; median (minimum, maximum)
measuredMetric: Tmax (h)
Numeric answer only, unit h assumed.

Lookup: Item under review: CC1(C)CCC2(CC1)N[C@@H](C(=O)N[C@@H]1CC[C@@H](C(N)=O)OC1)[C@H](c1ccnc(Cl)c1F)[C@]21C(=O)Nc2cc(Cl)ccc21 [milademetan, Milademetan] . Reported Tmax?
Found: 2.48

* * *

Test: Plasma pharmacokinetics of milademetan
Assay type: in vivo, human
Settings: human, plasma, po, 90 mg/d, t1/2, Day 1 of cycle 1, Cohort 2 (90 mg/d) (n = 11), oral QD; mean (SD)
measuredMetric: half-life (h)
Please reply with the bare figure in h and do not write the unit itself.

Lookup: GET /values?readout=half-life&item= CC1(C)CCC2(CC1)N[C@@H](C(=O)N[C@@H]1CC[C@@H](C(N)=O)OC1)[C@H](c1ccnc(Cl)c1F)[C@]21C(=O)Nc2cc(Cl)ccc21
Found: 15.4

* * *

Assay: Plasma pharmacokinetics of milademetan
Assay type: in vivo, human
Conditions: human, plasma, po, 60 mg/d, t1/2, Day 21 of cycle 1, Cohort 1 (60 mg/d) (n = 2), oral QD; mean (SD)
measuredMetric: half-life (min)
Give your result in min as a bare value.

Lookup: // query half-life value for entry CC1(C)CCC2(CC1)N[C@@H](C(=O)N[C@@H]1CC[C@@H](C(N)=O)OC1)[C@H](c1ccnc(Cl)c1F)[C@]21C(=O)Nc2cc(Cl)ccc21 [milademetan, Milademetan]
Found: 1090

* * *

Assay: Plasma pharmacokinetics of milademetan
Assay type: in vivo, human
Conditions: human, plasma, oral, Mean t1/2, day 1, across 60- to 120-mg cohorts
measuredMetric: half-life

Lookup: Find the recorded half-life belonging to CC1(C)CCC2(CC1)N[C@@H](C(=O)N[C@@H]1CC[C@@H](C(N)=O)OC1)[C@H](c1ccnc(Cl)c1F)[C@]21C(=O)Nc2cc(Cl)ccc21 and report it.
Found: 906 to 1070 min

* * *

Test: Plasma pharmacokinetics of milademetan
Format: in vivo, human
Conditions: human, plasma, po, 60 mg/d, t1/2, Day 1 of cycle 1, Cohort 1 (60 mg/d) (n = 3), oral QD; mean (SD)
measuredMetric: half-life
Write the numeric value and append its unit.

Lookup: Give the measured half-life of CC1(C)CCC2(CC1)N[C@@H](C(=O)N[C@@H]1CC[C@@H](C(N)=O)OC1)[C@H](c1ccnc(Cl)c1F)[C@]21C(=O)Nc2cc(Cl)ccc21 .
Found: 15.1 h
